# tested_on: T1, human MSLN-R3 protein (human, UniProt Q13421 487-598)
# T1 construct: also called hMSLN-R3
# protocol_description: ELISA on coated antigen, antibody 1 nM
result_type: OD450 (OD450)
Number only, in OD450; omit the unit.

Tell me the measured OD450 of F7.44.20-H11 (scFv, not shown: small tags and cut ends, also called S009-F7.44.20 humanized antibody VH2 + VL3) scFv: EVQLVQSGAEVKKPGASVKVSCKASGYTFTDYNMDWVRQAPGQGLEWMGDINPSTGGTIYNQKFNGRVTMTEDKSASTVYMELSSLRSEDTAVYYCARRRIGTGYFDVWGQGTTVTVSSGGGGSGGGGSGGGGSEIVLTQSPATLSLSPGERATLSCSASSSVISSYLSWYQQKPGQSPRLLIYRTSNLASGIPARFSGSGSGTDYTLTISSLEPEDFAVYYCHQWSSFPYTFGGGTKVEIK , please.
1.1

Tell me the measured OD450 of F7.44.20-H6 (scFv, not shown: small tags and cut ends, also called S009-F7.44.20 humanized antibody VH1a + VL2) scFv: EVQLVQSGAEVKKPGASVKVSCKASGYTFTDYNMDWVRQAPGQGLEWMGDINPSTGGTIYNQKFQGRVTMTEDKSTSTVYMELSSLRSEDTAVYYCARRRIGTGYFDVWGQGTTVTVSSGGGGSGGGGSGGGGSEIVLTQSPDFQSVTPKEKVTITCSASSSVISSYLSWYQQKPDQSPKLLIYRTSNLASGVPSRFSGSGSGTDYTLTINSLEAEDAATYYCHQWSSFPYTFGGGTKVEIK , please.
1.31
